Below, each entry is listed with its recorded Kd.
testedOn: T1, purified ALK protein (BLitz, Table 20) (Homo sapiens (Human), UniProt Q9UM73 19-1038, limits assumed)
T1 construct: also called purified ALK proteins
testSummary: BLI (BLitz), mAb on Protein A tip, purified ALK in solution
Only the number, expressed in nM, is required.

binder	measurementLabel	observedResult
Ab446 (antibody, V domains shown, humanized) VH: EVQLVQSGAEVKKPGSSVKLSCKASGYTFSSYWMHWVKQAPGQGLEWIGYIKPSSGYTKYAQKFQGRVTLTADKSTSTAYMELSSLRSEDTAVYYCARDYYGSSSWFAYWGQGTLVTVSS VL: EIVMTQSQATMSTSVGERATLSCKASQNVGTNVAWYQQKPGQSPKALIYGASTRATGVPARFSGSGSGTDFTLTISSVEPEDFAVYYCQQYNSYPYMYTFGQGTKLEIK	Kd	393
Ab422 (antibody, V domains shown, humanized) VH: EVQLVQSGAEVKKPGSSVKLSCKASGYTFSSYWMHWVKQAPGQGLEWIGYIKPSSGYTKYAQKFQGRVTLTADKSTSTAYMELSSLRSEDTAVYYCARDYYGSSSWFAYWGQGTLVTVSS VL: EIVMTQSQATLSTSPGERATLSCKASQNVGTNVAWYQQKPGQAPRALIYSASYRYSGVPARFSGSGSGTDFTLTISSVEPEDFAVYYCQQYNSYPYMYTFGQGTKLEIK	Kd	173

Now take the following binder into account.
Inquiry: Supply recorded Kd for Ab404 (antibody, V domains shown, humanized) VH: EVQLVQSGAEVKKPGASVKLSCKASGYTFTSYWMHWVRQAPGQGLEWIGYIKPSSGYTKYNQKFKDKATLTADKSTSTAYMELRSLRSDDTAVYYCARDYYGSSSWFAYWGQGTLVTVSS VL: EIVMTQSQATMSTSVGERATLSCKASQNVGTNVAWYQQKPGQSPKALIYSASYRYSGVPARFSGSGSGTDFTLTISSVEPEDFAVYYCQQYNSYPYMYTFGQGTKLEIK here.
Reply text: 132
